# studyTarget: Tyrosyl-tRNA synthetase, putative (Trypanosoma cruzi (strain CL Brener)) (UniProt Q4DSP6)
# Sequence (Q4DSP6 as listed by the source): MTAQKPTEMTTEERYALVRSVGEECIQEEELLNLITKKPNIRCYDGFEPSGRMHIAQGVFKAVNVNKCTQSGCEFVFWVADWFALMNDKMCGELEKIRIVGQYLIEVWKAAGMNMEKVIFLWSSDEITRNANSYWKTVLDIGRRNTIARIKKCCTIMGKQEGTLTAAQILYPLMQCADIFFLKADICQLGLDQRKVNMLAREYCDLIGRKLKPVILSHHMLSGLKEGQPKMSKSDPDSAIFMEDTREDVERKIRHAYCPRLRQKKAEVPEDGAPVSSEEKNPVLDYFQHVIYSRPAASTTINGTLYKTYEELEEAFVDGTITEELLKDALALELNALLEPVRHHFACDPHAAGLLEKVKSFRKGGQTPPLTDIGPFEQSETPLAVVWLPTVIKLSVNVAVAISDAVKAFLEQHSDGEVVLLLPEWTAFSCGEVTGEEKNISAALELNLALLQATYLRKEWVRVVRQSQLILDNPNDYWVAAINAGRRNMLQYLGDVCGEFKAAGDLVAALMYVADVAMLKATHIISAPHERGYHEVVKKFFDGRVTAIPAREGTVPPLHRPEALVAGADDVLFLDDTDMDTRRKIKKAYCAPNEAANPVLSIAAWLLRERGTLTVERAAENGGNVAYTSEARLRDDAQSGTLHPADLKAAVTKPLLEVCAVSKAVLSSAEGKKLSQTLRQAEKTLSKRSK
# testDescription: Trypanosoma cruzi tyrosyl tRNA synthetase (TcYRS) _High Tyrosine SOP; note: in the data most compounds retested in dose-response had high values
# Format: functional
# Parameters: scale not given: direction of the effect not stated beside the values
# measurementSetup: 30 µM
measuredParameter: Percent Effect (%)
Numbers only, in %.

Previously resolved entries follow.
1. O=C(CN(Cc1ccccc1)CC1CCOCC1)Nc1nccs1 ... 6.25
2. CCN1CC2(CC1=O)CN(Cc1ccco1)CCN(C(=O)N(C)C)C2 (stereo not drawn) ... 5.21

Then this compound:
Input: # Percent Effect lookup, item COc1cccc(OCc2cc(C(=O)NC[C@H]3CCCN3)n[nH]2)c1
Output: 1.05

* * *

# System: Trypanosoma cruzi
# testDescription: Trypanosoma cruzi phosphomannomutase and mannose-1-phosphate guanylyltransferase assay
# Type: functional
# Set-up: scale not given: direction of the effect not stated beside the values
# measurementSetup: 10 µM
measuredParameter: Percent Effect (%)
Numbers only, in %.

Take a look at these entries with their results.
1. CN(Cc1nnc(C2CC2)n1C)C1CCN(Cc2ccccc2F)C1 (centres undefined) ... 2.18
2. Fc1cccc(N2CCCC3(C2)CN(c2ncccn2)CCO3)c1 (centres undefined) ... -2.66
3. OCc1ccc(Cl)c(NCc2cccnc2)c1 ... -1.85

Please look at the items below and tell me Percent Effect for each one, in order.
1. c1cnnc(N2CCCC2CNCc2cc[nH]n2)c1 (centres undefined)
2. COc1ccc2cc(C(=O)N3CCCCC3Cn3cccn3)[nH]c2c1 (centres undefined)

Output:
1. 4.89
2. -0.562

Hi, could you look up Percent Effect for each item in my list?
1. Cc1ncsc1CN1CC[C@H]2C(=O)N(c3ccccc3)CCO[C@H]2C1
2. CCOc1cc(C)nc(N2CCN(Cc3nccn3C)CC2)n1
3. O=c1nc(SCc2cccnc2)c2c(n1CCO)CCC2
4. Cc1nc(C)c(CC(=O)N2C[C@H]3CC[C@@H]2CN(C(=O)N(C)C)C3)c(=O)[nH]1

Output:
1. -0.591
2. 0.875
3. 0.588
4. -5.18

* * *

For each of the compounds below, state its Percent Effect.
# studyTarget: Arginase-2, mitochondrial (Homo sapiens)
# testDescription: in vitro enzyme assay to detect the production of urea directly proportional to the activity of Arginase II; note: in the data most compounds retested in dose-response had high values
# Type: functional
# Design: scale not given: direction of the effect not stated beside the values
# measurementSetup: 33.3 µM
Give bare numbers, in %.

1. Cc1ccsc1CNC(=O)NC1CCCc2c1cnn2CCO (stereo not drawn) ... -3.12
2. CCNS(=O)(=O)c1ccc(C)c(C(=O)N(C)Cc2ccco2)c1 ... 0.442
3. Cc1nc(C)n(CC2CCCN2Cc2cc(C)on2)n1 (stereo not drawn) ... 3.58
4. COc1cccc(CN(C)C(=O)CCC(=O)c2ccc(Cl)cc2)c1OC ... -7.58
5. CCc1nc2n(n1)CC(NCC(=O)Nc1cc(C)on1)CC2 (stereo not drawn) ... 0.38

Go through the items and report each one's Percent Effect.
1. Cc1cc(C[S+]([O-])CC(=O)Nc2c(C)cccc2C)no1 (stereo not drawn)
2. CCc1ccccc1-n1nnc(C(=O)O)c1-c1ccccn1
3. CC(C)OCCOCc1cccc(NC(=O)NCc2ccncc2)c1

Output:
1. 4.63
2. 1.18
3. -11

* * *

# studyTarget: AMP-activated protein kinase, AMPK (Homo sapiens) (UniProt P54646+O43741+P54619+Q9UGJ0+Q9Y478+Q13131+Q9UGI9)
# testDescription: AMP-dependent Kinase enzyme assay. An in vitro enzyme assay that detects ADP turnover that is directly proportional to AMPK activity. This uses naive AMPK that is activated during the assay with MK-8722
# Assay type: functional
# Design: scale not given: direction of the effect not stated beside the values
# measurementSetup: 30 µM
Assign Percent Effect to each entry below.
One number for each entry, in %.

Consider the worked cases shown below.
1. O=C([C@@H]1C[C@@H]2CCN(CCc3ccccc3)C[C@H]2O1)N1CCCC1 ... 15
2. OCC1CCCN1c1cc(NCc2ccc(Cl)s2)ncn1 (configuration not stated) ... -3.63
3. OC(CN1CCCCCCC1)c1ccc(F)cc1 (configuration not stated) ... -3.76
4. COc1ccc(C(O)CNc2c(C#N)c(=O)n(C)c(=O)n2C)cc1 (configuration not stated) ... 4.15
5. Cc1cc(C)n(CC(=O)N2CCC(NS(C)(=O)=O)CC2)n1 ... 1.32

Go through the list and state Percent Effect for each entry.
1. CCCOCCN1CCC2(CC1)CC(c1ccccc1)C(=O)N2C (configuration not stated)
2. O=C(CC1CC1)NCc1cc(=O)n2c(n1)CN(Cc1ccoc1)CCC2

Output:
1: -0.289; 2: -1.08

* * *

Could you please report measured Percent Effect for the items listed next?
# studyTarget: Chromo domain-containing protein 1 (Saccharomyces cerevisiae (strain ATCC 204508 / S288c) (Baker's yeast))
# testDescription: ScCHD-1 Enzyme Inhibition Assay; note: in the data most compounds retested in dose-response had high values
# Type: functional
# Parameters: scale not given: direction of the effect not stated beside the values
# measurementSetup: 30 µM
Numbers only, in %.

1. CS(=O)(=O)c1ccc(CNC2CCCN(c3cccnn3)C2)cc1 (stereo unspecified) ... -19

Look up Percent Effect for the entries below, preserving their order.
1. Cc1cc(NC(=O)CCN2CCCC2Cn2cncn2)no1 (stereo unspecified)
2. Cn1cc(CN2CC[C@@H]3[C@@H](CCC(=O)N3CCc3c[nH]cn3)C2)cn1
3. Cc1ccc2c(c1)c(CNC(=O)C1CC(=O)N(C3CCCC3)C1)nn2C (stereo unspecified)
4. Cn1c(Cn2cccn2)nnc1C1CCN(Cc2cccnc2N)CC1

Output:
-27.3
-0.897
-5.94
0.423

Give Percent Effect for each of the items listed below.
1. Cc1cc(C(=O)NCc2cccnc2OC(C)C)no1
2. CC(=O)Nc1ncc(S(=O)(=O)Nc2ccc(F)cc2)s1
3. CCNc1cc2c(nn1)CCN(C(=O)CC1CCCCC1)C2
4. COCCN1CC[C@@H]2OC[C@H](C(=O)NCc3cccs3)C[C@@H]2C1
5. O=C(NCCOCC(F)(F)F)c1ccc(-c2ccco2)[nH]c1=O
6. O=C(Nc1ncn(CC(=O)N2CCCCCC2)n1)C1CCCO1 (stereo unspecified)
7. c1cc2c(cc1C1CCCN1Cc1nnnn1C1CC1)OCCO2 (stereo unspecified)
8. COCCc1noc(CN2CCc3nn(C(C)C)c(=O)cc3C2)n1

Output:
-0.257
-10.6
-8.44
-5
-6.31
-1.04
-4.08
-11.2

* * *

For each record, write down the corresponding Percent Effect.
# System: Trypanosoma cruzi
# testDescription: Trypanosoma cruzi phosphomannomutase and mannose-1-phosphate guanylyltransferase assay
# Type: functional
# Design: scale not given: direction of the effect not stated beside the values
# measurementSetup: 10 µM
Answers are plain numbers, in %.

Examples with answers:
1) CC(C)c1ccc(CN2CCC3(CCCN(c4nncs4)C3)C2)cc1 (centres undefined) ... 9.87
2) COc1c(C2CCCN2C(=O)c2ccc3cc[nH]c3c2)c(C)nn1C (centres undefined) ... 7.93
3) O=C(O)c1ccn(-c2ccccc2NS(=O)(=O)c2ccccc2)n1 ... -5.16

Now consider a different compound.
Input: I would be grateful if you could share the reported Percent Effect for O=C(c1ccnnc1)N1C[C@@H]2CC[C@H](Oc3cccc(F)c3)[C@@H]2C1 .
Output: -6.13

* * *

So I've got a bunch of compounds here, and I need their Percent Effect values.
# studyTarget: Chromo domain-containing protein 1 (Saccharomyces cerevisiae (strain ATCC 204508 / S288c) (Baker's yeast)) (UniProt P32657)
# Sequence (P32657 whole entry, the tested form may be a part): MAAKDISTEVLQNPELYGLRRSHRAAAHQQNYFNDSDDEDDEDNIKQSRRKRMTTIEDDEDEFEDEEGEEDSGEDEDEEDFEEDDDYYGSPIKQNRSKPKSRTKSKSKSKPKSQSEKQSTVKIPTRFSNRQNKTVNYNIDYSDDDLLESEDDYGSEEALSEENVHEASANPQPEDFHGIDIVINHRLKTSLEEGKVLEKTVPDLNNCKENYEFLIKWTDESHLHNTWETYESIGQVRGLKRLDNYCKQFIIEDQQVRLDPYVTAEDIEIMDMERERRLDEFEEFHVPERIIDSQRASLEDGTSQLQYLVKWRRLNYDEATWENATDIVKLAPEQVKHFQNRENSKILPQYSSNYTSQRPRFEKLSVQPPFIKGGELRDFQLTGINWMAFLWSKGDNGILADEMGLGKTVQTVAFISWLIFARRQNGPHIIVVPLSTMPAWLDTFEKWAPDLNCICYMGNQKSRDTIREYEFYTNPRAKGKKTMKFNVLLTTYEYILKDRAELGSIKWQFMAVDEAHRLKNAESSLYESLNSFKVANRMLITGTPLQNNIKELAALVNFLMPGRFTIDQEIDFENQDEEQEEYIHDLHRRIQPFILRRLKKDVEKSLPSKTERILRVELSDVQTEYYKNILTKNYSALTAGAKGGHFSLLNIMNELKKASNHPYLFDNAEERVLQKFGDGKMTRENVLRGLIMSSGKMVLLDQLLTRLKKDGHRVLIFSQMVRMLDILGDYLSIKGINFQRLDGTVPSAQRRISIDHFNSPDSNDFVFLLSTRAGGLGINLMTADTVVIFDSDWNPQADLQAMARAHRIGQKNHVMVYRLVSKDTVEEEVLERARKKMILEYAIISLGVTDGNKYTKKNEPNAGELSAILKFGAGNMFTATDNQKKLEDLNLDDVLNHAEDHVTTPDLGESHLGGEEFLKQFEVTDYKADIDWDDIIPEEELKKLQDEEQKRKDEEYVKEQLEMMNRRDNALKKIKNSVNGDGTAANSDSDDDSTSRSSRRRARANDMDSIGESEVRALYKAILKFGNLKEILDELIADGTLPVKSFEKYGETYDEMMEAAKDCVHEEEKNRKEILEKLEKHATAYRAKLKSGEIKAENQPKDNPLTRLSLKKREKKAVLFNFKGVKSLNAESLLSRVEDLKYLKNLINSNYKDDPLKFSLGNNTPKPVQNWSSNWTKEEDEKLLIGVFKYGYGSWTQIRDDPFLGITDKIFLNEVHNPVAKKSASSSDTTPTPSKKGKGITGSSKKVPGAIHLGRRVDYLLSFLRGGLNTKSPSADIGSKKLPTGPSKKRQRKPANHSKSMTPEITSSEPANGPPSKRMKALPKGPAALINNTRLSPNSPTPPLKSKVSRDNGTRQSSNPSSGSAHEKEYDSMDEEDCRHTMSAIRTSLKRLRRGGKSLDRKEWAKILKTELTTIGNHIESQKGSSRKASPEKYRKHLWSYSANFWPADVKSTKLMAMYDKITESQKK
# testDescription: ScCHD-1 Enzyme Inhibition Assay; note: in the data most compounds retested in dose-response had high values
# Format: functional
# Design: scale not given: direction of the effect not stated beside the values
# measurementSetup: 30 µM
One number for each entry, in %.

1. Cc1cc(N(C)Cc2cc(C)on2)n2nc(C)c(C)c2n1 ... -5.04
2. COc1cc(CNc2cnn(C)c2)cc2c1OCCO2 ... -4.73

Proceeding to the next compound to report its Percent Effect.
Input: Query: Percent Effect; subject: O=C(CCCc1cn[nH]c1)N1C[C@@H](CN2CCOCC2)[C@@H](CO)C1
Output: -2.89

* * *

# studyTarget: Tyrosyl-tRNA synthetase, putative (Trypanosoma cruzi (strain CL Brener)) (UniProt Q4DSP6)
# testDescription: Trypanosoma cruzi tyrosyl tRNA synthetase (TcYRS) _High Tyrosine SOP; note: in the data most compounds retested in dose-response had high values
# Assay type: functional
# Design: scale not given: direction of the effect not stated beside the values
# measurementSetup: 30 µM
measuredParameter: Percent Effect (%)
Numbers only, in %.

Study these solved cases before continuing.
1. Cc1ccccc1CN1CCN(CC(=O)Nc2cccnc2)CC1 ... 4.76
2. O=C(c1ccccc1-n1cccn1)N1CCCN(c2cccnn2)CC1 ... 0.952
3. N#Cc1cc(NC(=O)c2ccccc2)ccc1N1CCC(O)CC1 ... 1.59
4. O=C(c1ccsc1)N1C[C@@H]2C[C@@H](c3nnc(C4CC4)o3)O[C@@H]2C1 ... 1.06
5. Cc1cccc(CCC(=O)N2CCCC(c3cc(C(N)=O)[nH]n3)C2)c1 (stereo not drawn) ... 0.493
6. CN(C)C(=O)N1CCN(Cc2ccccc2)[C@@H]2CS(=O)(=O)C[C@@H]21 ... 7.94
7. O=C(NCCNc1ncccn1)N1CCN(Cc2cccnc2)CC1 ... 7.39

Could you now consider this next molecule?
Input: What value of Percent Effect has been recorded for this entry: CCc1noc(C2CCCCN2C(=O)c2nnc3ccccc3n2)n1 (stereo not drawn)
Output: 11.6

Numbers sourced from ChEMBL document CHEMBL3988442.
